System: Wnt signaling
method.description: TopFlash reporter gene bioassay in SW480 cells
Type: cell-based
assay.context: Homo sapiens, SW480, TopFlash reporter gene assay, inhibition of Wnt signaling; read-out: RGA, IC50 (μM) TopF
reported.metric: IC50 (µM)

Example entries begin here.
{"molecular.string": "C=CCN1CC(=O)N2[C@@H](Cc3ccc(O)cc3)C(=O)N(Cc3ccc(F)c(OCCN4CCOCC4)c3)C[C@@H]2N1C(=O)NCc1ccccc1", "experimental.system": "Wnt signaling", "endpoint.unit": "µM", "observed.value": 0.9}
{"molecular.string": "C=CCN1CC(=O)N2[C@@H](Cc3ccc(O)cc3)C(=O)N(Cc3cncc(C(=O)OC)c3)C[C@@H]2N1C(=O)NCc1ccccc1", "experimental.system": "Wnt signaling", "endpoint.unit": "µM", "observed.value": 4.98}
{"molecular.string": "C=CCN1CC(=O)N2[C@@H](Cc3ccc(O)cc3)C(=O)N(Cc3csc4cc(NC=O)ccc34)C[C@@H]2N1C(=O)NCc1ccccc1", "experimental.system": "Wnt signaling", "endpoint.unit": "µM", "observed.value": 1.41}
{"molecular.string": "C=CCN1CC(=O)N2[C@@H](Cc3ccc(O)cc3)C(=O)N(Cc3ccc(OC)c(Cl)c3)C[C@@H]2N1C(=O)NCc1ccccc1", "experimental.system": "Wnt signaling", "endpoint.unit": "µM", "observed.value": 1.44}

1 = C=CCN1CC(=O)N2[C@@H](Cc3ccc(O)cc3)C(=O)N(Cc3cccc(-c4ccccc4OC)n3)C[C@@H]2N1C(=O)NCc1ccccc1
2 = C=CCN1CC(=O)N2[C@@H](Cc3ccc(O)cc3)C(=O)N(Cc3cccc(NC(=O)OC)c3)C[C@@H]2N1C(=O)NCc1ccccc1
Decide: 1 or 2 , by lowest recorded IC50. The response must carry the label of the picked entry. 2

====

System: Wnt signaling
method.description: TopFlash reporter gene bioassay in SW480 cells
Type: cell-based
assay.context: Homo sapiens, SW480, TopFlash reporter gene assay, inhibition of Wnt signaling; read-out: RGA, IC50 (μM) TopF
reported.metric: IC50 (µM)

A = C=CCN1CC(=O)N2[C@@H](Cc3ccc(O)cc3)C(=O)N(Cc3ccc(F)c4scnc34)C[C@@H]2N1C(=O)NCc1ccc(Cl)c(Cl)c1
B = C=CCN1CC(=O)N2[C@@H](Cc3ccc(O)cc3)C(=O)N(C/C=C/c3ccccc3)C[C@@H]2N1C(=O)NCc1ccccc1
Of A and B , whose reported IC50 is numerically smaller? Please indicate the selected item by its label. A

A = C=CCN1CC(=O)N2[C@@H](Cc3ccc(O)cc3)C(=O)N(Cc3cccc(C(=O)NCC4CCCO4)c3)C[C@@H]2N1C(=O)NCc1ccccc1 (stereo partly drawn)
B = C=CCN1CC(=O)N2[C@@H](Cc3ccc(O)cc3)C(=O)N(Cc3cccc4c(C#N)cn(S(=O)(=O)c5ccccc5)c34)C[C@@H]2N1C(=O)NCc1ccccc1
C = C=CCN1CC(=O)N2[C@@H](Cc3ccc(O)cc3)C(=O)N(Cc3cccc4c(C(=O)C5CC5)c[nH]c34)C[C@@H]2N1C(=O)NCc1ccccc1
D = C=CCN1CC(=O)N2[C@@H](Cc3ccc(O)cc3)C(=O)N(Cc3cc4c(cc3[N+](=O)[O-])OCO4)C[C@@H]2N1C(=O)NCc1ccccc1
// ranking: key=IC50, reverse=True // rank by listing labels in the order requested D, A, B, C
